Test system: 855422-203-R-J1-PDC complex spheroid viability
Assay: Anticancer human tumor 855422-203-R-J1-PDC patient-derived bladder carcinoma cell line growth inhibition [POLQ]
Details: second compound 3.16 µM; first compound 0.316 µM; stronger effect = lower value
Observed property: viability, T/C

Known results for molecules:
Molecule | Value measured
CC1COCCN1c1cc(-c2ccnn2C)c2ccnc(-c3ccn[nH]3)c2n1 (stereo not drawn) + Nc1ccc(C#CCN(C(=O)Cc2ncc(C(F)(F)F)cc2C(F)(F)F)c2ccc(F)cc2)nn1 | 27.1%
CCc1cc2c(N3CCc4c(cc(Cn5ccnc5)cc4-c4cn(C)nc4C(F)(F)F)C3=O)ccnc2c(OC)n1 + COC1C(OC(N)=O)C(O)C(Oc2ccc3c(O)c(NC(=O)c4ccc(O)c(CC=C(C)C)c4)c(=O)oc3c2C)OC1(C)C | 68.9%

# evaluate next
Fill in the blank: the reported viability, T/C of CCCS(=O)(=O)Nc1ccc(F)c(C(=O)c2c[nH]c3ncc(-c4ccc(Cl)cc4)cc23)c1F + COC1C(OC(N)=O)C(O)C(Oc2ccc3c(O)c(NC(=O)c4ccc(O)c(CC=C(C)C)c4)c(=O)oc3c2C)OC1(C)C is ____.
110%

====

System: 855422-203-R-J1-PDC complex spheroid viability
Test: Anticancer human tumor 855422-203-R-J1-PDC cell line growth inhibition [POLQ];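 note: spheroids exposed to compounds for seven days before readout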
Details: second compound 0.0316 µM; first compound 10 µM; stronger effect = lower value
# viability, T/C values compiled below
Your answer should be a plain number; it is taken to be in %.

Compound | System name | Observed property | Value measured
C#Cc1c(F)ccc2cc(O)cc(-c3ncc4c(N5CC6CCC(C5)N6)nc(OCC56CCCN5CC(F)C6)nc4c3F)c12 (stereo not drawn) + Nc1ccc(C#CCN(C(=O)Cc2ncc(C(F)(F)F)cc2C(F)(F)F)c2ccc(F)cc2)nn1 | 855422-203-R-J1-PDC complex spheroid viability | viability, T/C | 109

Fill in the blank: the reported viability, T/C of CC1COCCN1c1cc(-c2ccnn2C)c2ccnc(-c3ccn[nH]3)c2n1 (stereo not drawn) + Cc1cccc(N(C)C(=O)C2C(O)CCN2c2nc(C)cc(C(F)(F)F)c2C#N)c1 is ____.
7.23

Fill in the blank: the reported viability, T/C of CC1COCCN1c1cc(-c2ccnn2C)c2ccnc(-c3ccn[nH]3)c2n1 (stereo not drawn) + COC1C(OC(N)=O)C(O)C(Oc2ccc3c(O)c(NC(=O)c4ccc(O)c(CC=C(C)C)c4)c(=O)oc3c2C)OC1(C)C is ____.
8.63

====

System: 855422-203-R-J1-PDC complex spheroid viability
Assay: Anticancer human tumor 855422-203-R-J1-PDC cell line growth inhibition [POLQ];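 note: spheroids exposed to compounds for seven days before readout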
Settings: second compound 10 µM; first compound 0.0316 µM; stronger effect = lower value
Observed property: viability, T/C (%)
Your answer should be a plain number; it is taken to be in %.

Known results for molecules:
Molecule | viability, T/C / %
C#Cc1c(F)ccc2cc(O)cc(-c3ncc4c(N5CC6CCC(C5)N6)nc(OCC56CCCN5CC(F)C6)nc4c3F)c12 (stereo not drawn) + Cc1cccc(N(C)C(=O)C2C(O)CCN2c2nc(C)cc(C(F)(F)F)c2C#N)c1 | 102
CC1COCCN1c1cc(-c2ccnn2C)c2ccnc(-c3ccn[nH]3)c2n1 (stereo not drawn) + COC1C(OC(N)=O)C(O)C(Oc2ccc3c(O)c(NC(=O)c4ccc(O)c(CC=C(C)C)c4)c(=O)oc3c2C)OC1(C)C | 118

# evaluate next
Requested read-out viability, T/C, target or system 855422-203-R-J1-PDC complex spheroid viability, entry CCCS(=O)(=O)Nc1ccc(F)c(C(=O)c2c[nH]c3ncc(-c4ccc(Cl)cc4)cc23)c1F + Nc1ccc(C#CCN(C(=O)Cc2ncc(C(F)(F)F)cc2C(F)(F)F)c2ccc(F)cc2)nn1
94

====

# viability, T/C values compiled below
System: 855422-203-R-J1-PDC complex spheroid viability
Test: Anticancer human tumor 855422-203-R-J1-PDC cell line growth inhibition [POLQ];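 note: spheroids exposed to compounds for seven days before readout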
Details: second compound 3.16 µM; first compound 1 µM; stronger effect = lower value
Your answer should be a plain number; it is taken to be in %.

Known results for compounds:
Compound | Observed property | Value measured
CC1COCCN1c1cc(C2(S(C)(=N)=O)CC2)nc(-c2ccnc3[nH]ccc23)n1 (centres undefined) + Nc1ccc(C#CCN(C(=O)Cc2ncc(C(F)(F)F)cc2C(F)(F)F)c2ccc(F)cc2)nn1 | viability, T/C | 189
CCCS(=O)(=O)Nc1ccc(F)c(C(=O)c2c[nH]c3ncc(-c4ccc(Cl)cc4)cc23)c1F + Nc1ccc(C#CCN(C(=O)Cc2ncc(C(F)(F)F)cc2C(F)(F)F)c2ccc(F)cc2)nn1 | viability, T/C | 101

Fill in the blank: the reported viability, T/C of COc1cc2cc(C(=O)CCC(=O)O)sc2cc1OC + COC1C(OC(N)=O)C(O)C(Oc2ccc3c(O)c(NC(=O)c4ccc(O)c(CC=C(C)C)c4)c(=O)oc3c2C)OC1(C)C is ____.
111

Fill in the blank: the reported viability, T/C of Nc1ccn(C2OC(CO)C(O)C2(F)F)c(=O)n1 (centres undefined) + Cc1cccc(N(C)C(=O)C2C(O)CCN2c2nc(C)cc(C(F)(F)F)c2C#N)c1 is ____.
10.2

====

Test system: 855422-203-R-J1-PDC complex spheroid viability
Test: Anticancer human tumor 855422-203-R-J1-PDC cell line growth inhibition [POLQ];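 note: spheroids exposed to compounds for seven days before readout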
Details: curve of first compound; second compound 1 µM
Observed property: IC50 (nM)
Your answer should be a plain number; it is taken to be in nM.

Molecule | System name | Unit descriptor | IC50
COc1cc(C2c3cc4c(cc3C(OC3OC5COC(C)OC5C(O)C3O)C3COC(=O)C23)OCO4)cc(OC)c1O (stereo not given) + Nc1ccc(C#CCN(C(=O)Cc2ncc(C(F)(F)F)cc2C(F)(F)F)c2ccc(F)cc2)nn1 | 855422-203-R-J1-PDC complex spheroid viability | nM | 439

# evaluate next
Fill in the blank: the reported IC50 of O=c1[nH]cc(F)c(=O)[nH]1 + Cc1cccc(N(C)C(=O)C2C(O)CCN2c2nc(C)cc(C(F)(F)F)c2C#N)c1 is ____.
496

====

System: 855422-203-R-J1-PDC complex spheroid viability
Assay: Anticancer human tumor 855422-203-R-J1-PDC cell line growth inhibition [POLQ];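 note: spheroids exposed to compounds for seven days before readout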
Details: second compound 1 µM; first compound 0.0316 µM; stronger effect = lower value
Observed property: viability, T/C (%)
Your answer should be a plain number; it is taken to be in %.

Known results for compounds:
Compound | viability, T/C (%)
COc1cc2cc(C(=O)CCC(=O)O)sc2cc1OC + COC1C(OC(N)=O)C(O)C(Oc2ccc3c(O)c(NC(=O)c4ccc(O)c(CC=C(C)C)c4)c(=O)oc3c2C)OC1(C)C | 104
CCc1cc2c(N3CCc4c(cc(Cn5ccnc5)cc4-c4cn(C)nc4C(F)(F)F)C3=O)cc(C)nc2c(OC)n1 + COC1C(OC(N)=O)C(O)C(Oc2ccc3c(O)c(NC(=O)c4ccc(O)c(CC=C(C)C)c4)c(=O)oc3c2C)OC1(C)C | 114
O=c1[nH]cc(F)c(=O)[nH]1 + Cc1cccc(N(C)C(=O)C2C(O)CCN2c2nc(C)cc(C(F)(F)F)c2C#N)c1 | 112
CC1COCCN1c1cc(-c2ccnn2C)c2ccnc(-c3ccn[nH]3)c2n1 (stereo unspecified) + Cc1cccc(N(C)C(=O)C2C(O)CCN2c2nc(C)cc(C(F)(F)F)c2C#N)c1 | 111
COc1ccc([C@@H](O)c2cc(-c3ncnc4cc(N5CCOCC5)ccc34)c(F)cc2Cl)nn1 + Nc1ccc(C#CCN(C(=O)Cc2ncc(C(F)(F)F)cc2C(F)(F)F)c2ccc(F)cc2)nn1 | 99.8
Cn1ncnc1[C@H]1c2n[nH]c(=O)c3cc(F)cc(c23)N[C@@H]1c1ccc(F)cc1 + Cc1cccc(N(C)C(=O)C2C(O)CCN2c2nc(C)cc(C(F)(F)F)c2C#N)c1 | 104

Fill in the blank: the reported viability, T/C of C=CCn1c(=O)c2cnc(Nc3ccc(N4CCN(C)CC4)cc3)nc2n1-c1cccc(C(C)(C)O)n1 + Cc1cccc(N(C)C(=O)C2C(O)CCN2c2nc(C)cc(C(F)(F)F)c2C#N)c1 is ____.
91.1

Fill in the blank: the reported viability, T/C of CCc1cc2c(N3CCc4c(cc(Cn5ccnc5)cc4-c4cn(C)nc4C(F)(F)F)C3=O)cc(C)nc2c(OC)n1 + Cc1cccc(N(C)C(=O)C2C(O)CCN2c2nc(C)cc(C(F)(F)F)c2C#N)c1 is ____.
119

Fill in the blank: the reported viability, T/C of O=C(Nc1ccc(O)c(NS(=O)(=O)c2ccc(F)cc2)c1)c1ccc(-c2ccccc2)cc1 + Nc1ccc(C#CCN(C(=O)Cc2ncc(C(F)(F)F)cc2C(F)(F)F)c2ccc(F)cc2)nn1 is ____.
92.8

Fill in the blank: the reported viability, T/C of CC(C)n1c(=O)n(C)c2cnc3cc(F)c(-c4ccc(OCCCN5CCCCC5)nc4)cc3c21 + Nc1ccc(C#CCN(C(=O)Cc2ncc(C(F)(F)F)cc2C(F)(F)F)c2ccc(F)cc2)nn1 is ____.
91.8

Fill in the blank: the reported viability, T/C of CC[C@@]1(O)C(=O)OCc2c1cc1n(c2=O)Cc2cc3c(CN(C)C)c(O)ccc3nc2-1 + Cc1cccc(N(C)C(=O)C2C(O)CCN2c2nc(C)cc(C(F)(F)F)c2C#N)c1 is ____.
43

Fill in the blank: the reported viability, T/C of COc1cccc(OCCCN)c1-c1cc(Nc2cnc(C#N)cn2)n[nH]1 + Nc1ccc(C#CCN(C(=O)Cc2ncc(C(F)(F)F)cc2C(F)(F)F)c2ccc(F)cc2)nn1 is ____.
31.3

Fill in the blank: the reported viability, T/C of O=C(c1cc(Cc2n[nH]c(=O)c3ccccc23)ccc1F)N1CCN(C(=O)C2CC2)CC1 + Cc1cccc(N(C)C(=O)C2C(O)CCN2c2nc(C)cc(C(F)(F)F)c2C#N)c1 is ____.
104

Fill in the blank: the reported viability, T/C of COc1cc(C2c3cc4c(cc3C(OC3OC5COC(C)OC5C(O)C3O)C3COC(=O)C23)OCO4)cc(OC)c1O (stereo unspecified) + Cc1cccc(N(C)C(=O)C2C(O)CCN2c2nc(C)cc(C(F)(F)F)c2C#N)c1 is ____.
113

Fill in the blank: the reported viability, T/C of CC(C)n1c(=O)n(C)c2cnc3cc(F)c(-c4ccc(OCCCN5CCCCC5)nc4)cc3c21 + Cc1cccc(N(C)C(=O)C2C(O)CCN2c2nc(C)cc(C(F)(F)F)c2C#N)c1 is ____.
99.2

Fill in the blank: the reported viability, T/C of COc1cccc2c1C(=O)c1c(O)c3c(c(O)c1C2=O)CC(O)(C(=O)CO)CC3OC1CC(N)C(O)C(C)O1 (stereo unspecified) + Cc1cccc(N(C)C(=O)C2C(O)CCN2c2nc(C)cc(C(F)(F)F)c2C#N)c1 is ____.
14.4

Fill in the blank: the reported viability, T/C of CC1COCCN1c1cc(C2(S(C)(=N)=O)CC2)nc(-c2ccnc3[nH]ccc23)n1 (stereo unspecified) + Nc1ccc(C#CCN(C(=O)Cc2ncc(C(F)(F)F)cc2C(F)(F)F)c2ccc(F)cc2)nn1 is ____.
93.3
